- tgt: Mitogen-activated protein kinase kinase kinase kinase 2 (Homo sapiens, UniProt Q12851)
- Sequence (Q12851 whole entry): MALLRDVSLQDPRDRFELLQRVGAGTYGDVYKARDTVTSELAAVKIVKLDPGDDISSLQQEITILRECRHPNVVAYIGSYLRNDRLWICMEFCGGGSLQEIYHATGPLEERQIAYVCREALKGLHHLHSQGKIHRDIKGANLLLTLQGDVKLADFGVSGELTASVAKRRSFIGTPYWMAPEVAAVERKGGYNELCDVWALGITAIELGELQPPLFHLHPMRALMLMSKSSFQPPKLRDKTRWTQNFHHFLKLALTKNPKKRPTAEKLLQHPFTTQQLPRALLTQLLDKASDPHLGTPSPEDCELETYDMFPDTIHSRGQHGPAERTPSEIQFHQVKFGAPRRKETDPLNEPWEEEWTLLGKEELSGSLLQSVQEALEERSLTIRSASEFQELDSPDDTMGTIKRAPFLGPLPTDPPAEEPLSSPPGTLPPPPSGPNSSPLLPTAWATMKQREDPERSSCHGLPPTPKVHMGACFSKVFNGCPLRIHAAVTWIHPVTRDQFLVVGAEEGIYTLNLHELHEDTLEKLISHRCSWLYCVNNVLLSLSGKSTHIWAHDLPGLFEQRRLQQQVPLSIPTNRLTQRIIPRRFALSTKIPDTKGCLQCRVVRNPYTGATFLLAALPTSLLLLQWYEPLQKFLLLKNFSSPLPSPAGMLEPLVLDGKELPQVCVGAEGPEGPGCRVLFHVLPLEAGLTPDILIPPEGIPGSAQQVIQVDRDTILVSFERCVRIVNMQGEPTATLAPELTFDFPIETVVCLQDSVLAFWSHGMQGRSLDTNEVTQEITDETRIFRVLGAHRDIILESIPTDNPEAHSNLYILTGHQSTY
Active and inactive are the calls of the source.

smiles_representation: Cc1cc(-c2cc(OC(=O)c3ccccc3)ccc2Cl)cc2nnc(Nc3ccc(OCCN4CCCC4)cc3)nc12
Kd: > 30 µM (inactive)
//
smiles_representation: COc1cc(F)c(F)c(Nc2ccc(I)cc2F)c1NS(=O)(=O)C1(C[C@H](O)CO)CC1
Kd: > 30 µM (inactive)
//
smiles_representation: Cc1cc(C(=O)Nc2cc(Oc3ccc4nc(NC(=O)C5CC5)cn4n3)ccc2C)n(C)n1
Kd: > 30 µM (inactive)

====

What follows is a collection of Kd values obtained with Serine/threonine-protein kinase 4 (Homo sapiens).
Sequence (Q13043 whole entry): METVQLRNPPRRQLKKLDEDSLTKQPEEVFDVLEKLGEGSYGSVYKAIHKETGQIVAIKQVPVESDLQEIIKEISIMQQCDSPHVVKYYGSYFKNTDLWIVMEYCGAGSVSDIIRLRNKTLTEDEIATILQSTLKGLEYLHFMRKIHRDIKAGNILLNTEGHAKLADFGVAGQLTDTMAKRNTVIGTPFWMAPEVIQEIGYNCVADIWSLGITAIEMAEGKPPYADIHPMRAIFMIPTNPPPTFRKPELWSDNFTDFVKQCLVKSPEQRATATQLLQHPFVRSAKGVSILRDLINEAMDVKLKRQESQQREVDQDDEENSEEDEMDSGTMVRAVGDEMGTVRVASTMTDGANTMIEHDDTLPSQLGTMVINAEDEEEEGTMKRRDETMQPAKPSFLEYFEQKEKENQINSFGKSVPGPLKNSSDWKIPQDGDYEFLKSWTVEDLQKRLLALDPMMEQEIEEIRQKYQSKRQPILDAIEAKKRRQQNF
Calls of active or inactive are those of the source.

compound: N#CCNC(=O)c1ccc(-c2ccnc(Nc3ccc(N4CCOCC4)cc3)n2)cc1
Kd: > 30 µM (inactive)
--
compound: C[C@]1(O)C[C@@H](c2nc(-c3ccc4ccc(-c5ccccc5)nc4c3)c3c(N)nccn32)C1
Kd: > 30 µM (inactive)
--
compound: CCc1cc2c(cc1N1CCC(N3CCOCC3)CC1)C(C)(C)c1[nH]c3cc(C#N)ccc3c1C2=O
Kd: > 30 µM (inactive)
--
compound: CC(C)(O)CC(=O)NCCn1ccc2ncnc(Nc3ccc(Oc4cccc(C(F)(F)F)c4)c(Cl)c3)c21
Kd: > 30 µM (inactive)
--
compound: CC1(COc2ccc3c(c2)ncn3-c2ccc3cccc(N4CCC(N)CC4)c3n2)COC1
Kd: 0.702 µM (active)
--
compound: Cc1cc(Nc2nc(N[C@@H](C)c3ncc(F)cn3)ncc2Cl)n[nH]1
Kd: 0.861 µM (active)
--
compound: FC(F)(F)c1ccc(CNc2ccc(Cc3c[nH]c4ncc(Cl)cc34)cn2)cn1
Kd: > 30 µM (inactive)
--
compound: CC(C)CC(=O)Nc1[nH]nc2c1CN(C(=O)C1CCN(C)CC1)C2(C)C
Kd: > 30 µM (inactive)
--
compound: O=c1[nH]c([C@@H]2CCCN2)nc2c1oc1ccc(Cl)cc12
Kd: > 30 µM (inactive)
--
compound: CNC(=O)c1ccc(Nc2ncc(C(F)(F)F)c(NCc3nccnc3N(C)S(C)(=O)=O)n2)cc1
Kd: 2.45 µM (active)
--
compound: CNC(=O)c1cccc(-c2ccc3c(N4CCOC[C@@H]4C)nc(N4CCOC[C@@H]4C)nc3n2)c1
Kd: > 30 µM (inactive)
--
compound: O[C@H]1CC[C@H](Nc2ncc3nc(Nc4c(F)cc(F)cc4F)n([C@H]4CCOC4)c3n2)CC1
Kd: > 30 µM (inactive)
--
compound: O=C(Nc1ccc(OC(F)(F)F)cc1)c1sccc1NCc1ccnc2ccccc12
Kd: > 30 µM (inactive)
--
compound: CN1CCN(c2nc(C3=C(c4c[nH]c5ccccc45)C(=O)NC3=O)c3ccccc3n2)CC1
Kd: > 30 µM (inactive)
--
compound: COCCN1CCN(Cc2ccc(-c3n[nH]c4c3C(=O)c3c(NC(=O)NN5CCOCC5)cccc3-4)cc2)CC1
Kd: > 30 µM (inactive)
--
compound: C#Cc1cccc(Nc2ncnc3cc4c(cc23)OCCOCCOCCO4)c1
Kd: > 30 µM (inactive)
--
compound: COc1cc2ncnc(Nc3ccc(F)c(Cl)c3)c2cc1NC(=O)/C=C/CN1CCCCC1 [DACOMITINIB ANHYDROUS]
Kd: > 30 µM (inactive)
--
compound: COc1ccc(-c2ccc3ncc4c(c3c2)n(-c2ccc(N3CCNCC3)c(C(F)(F)F)c2)c(=O)n4C)cn1 [BGT-226 FREE BASE]
Kd: > 30 µM (inactive)

====

- tgt: Dual specificity mitogen-activated protein kinase kinase 5 (Homo sapiens, UniProt Q13163)
- Sequence (Q13163 whole entry): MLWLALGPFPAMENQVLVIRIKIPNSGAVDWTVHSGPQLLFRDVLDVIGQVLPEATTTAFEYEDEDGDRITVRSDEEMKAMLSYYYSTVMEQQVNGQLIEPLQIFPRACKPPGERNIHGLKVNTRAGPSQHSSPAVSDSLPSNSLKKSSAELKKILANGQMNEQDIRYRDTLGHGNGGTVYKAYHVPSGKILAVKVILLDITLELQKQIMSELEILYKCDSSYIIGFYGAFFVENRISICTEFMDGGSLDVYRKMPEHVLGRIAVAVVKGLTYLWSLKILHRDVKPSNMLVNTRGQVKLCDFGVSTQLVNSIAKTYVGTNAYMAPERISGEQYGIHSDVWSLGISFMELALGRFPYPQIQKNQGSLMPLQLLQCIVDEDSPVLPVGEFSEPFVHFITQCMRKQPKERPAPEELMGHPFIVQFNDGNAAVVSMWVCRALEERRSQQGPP
The source made the active and inactive calls.
Labels: 1 for active, -1 for inactive

compound: FC(F)(F)c1ccc(CNc2ccc(Cc3c[nH]c4ncc(Cl)cc34)cn2)cn1
tgt: Dual specificity mitogen-activated protein kinase kinase 5 (Homo sapiens, UniProt Q13163)
label: -1
--
compound: C[C@]1(O)C[C@@H](c2nc(-c3ccc4ccc(-c5ccccc5)nc4c3)c3c(N)nccn32)C1
tgt: Dual specificity mitogen-activated protein kinase kinase 5 (Homo sapiens, UniProt Q13163)
label: 1
--
compound: CNC(=O)c1cccc(-c2ccc3c(N4CCOC[C@@H]4C)nc(N4CCOC[C@@H]4C)nc3n2)c1
tgt: Dual specificity mitogen-activated protein kinase kinase 5 (Homo sapiens, UniProt Q13163)
label: -1
--
compound: O=S(=O)(c1cccc2c(O)nccc12)N1CCCNCC1 [HYDROXYFASUDIL]
tgt: Dual specificity mitogen-activated protein kinase kinase 5 (Homo sapiens, UniProt Q13163)
label: -1
--
compound: Cc1cc(C(=O)Nc2cc(Oc3ccc4nc(NC(=O)C5CC5)cn4n3)ccc2C)n(C)n1
tgt: Dual specificity mitogen-activated protein kinase kinase 5 (Homo sapiens, UniProt Q13163)
label: -1

====

- tgt: Serine/threonine-protein kinase Chk1 (Homo sapiens)
- Sequence (O14757 whole entry): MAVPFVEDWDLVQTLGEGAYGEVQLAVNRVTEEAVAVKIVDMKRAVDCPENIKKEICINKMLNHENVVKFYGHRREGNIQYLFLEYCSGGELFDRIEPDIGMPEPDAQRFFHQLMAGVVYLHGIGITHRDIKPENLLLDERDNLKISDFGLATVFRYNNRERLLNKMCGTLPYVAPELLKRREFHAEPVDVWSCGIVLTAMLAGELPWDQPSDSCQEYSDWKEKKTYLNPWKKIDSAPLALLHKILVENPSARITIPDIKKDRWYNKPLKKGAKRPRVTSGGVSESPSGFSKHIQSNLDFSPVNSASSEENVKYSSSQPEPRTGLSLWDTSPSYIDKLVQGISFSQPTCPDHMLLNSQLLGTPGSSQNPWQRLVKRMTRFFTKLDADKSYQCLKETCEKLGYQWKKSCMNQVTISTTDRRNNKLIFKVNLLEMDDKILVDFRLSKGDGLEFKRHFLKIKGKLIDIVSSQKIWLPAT
Calls of active or inactive are those of the source.
Labels: active, inactive

smiles_representation: O=C(O)c1ccc2c(c1)nc(Nc1cccc(Cl)c1)c1ccncc12
label: active
//
smiles_representation: Cc1c(NC(=O)OC[C@@H]2COCCN2)cn2ncnc(Nc3ccc4c(cnn4Cc4cccc(F)c4)c3)c12
label: inactive
//
smiles_representation: COc1cccc2cc(-c3nc([C@H]4CC[C@H](C(=O)O)CC4)n4ncnc(N)c34)[nH]c12
label: inactive
//
smiles_representation: CCc1nc(C(N)=O)c(Nc2ccc(N3CCC(N4CCN(C)CC4)CC3)c(OC)c2)nc1NC1CCOCC1
label: inactive
//
smiles_representation: COc1cc(F)c(F)c(Nc2ccc(I)cc2F)c1NS(=O)(=O)C1(C[C@H](O)CO)CC1
label: active
//
smiles_representation: Cn1c(=O)c(F)c(Nc2ccc(I)cc2F)c2c(=O)n(C[C@@H](O)CO)cnc21
label: inactive
//
smiles_representation: COc1cc2ncnc3c2cc1OCCCCCN(C)Cc1ccc(Br)cc1N3
label: inactive
//
smiles_representation: O=c1[nH]c([C@@H]2CCCN2)nc2c1oc1ccc(Cl)cc12
label: inactive

====

- tgt: Citron Rho-interacting kinase (Homo sapiens)
- Sequence (O14578 whole entry): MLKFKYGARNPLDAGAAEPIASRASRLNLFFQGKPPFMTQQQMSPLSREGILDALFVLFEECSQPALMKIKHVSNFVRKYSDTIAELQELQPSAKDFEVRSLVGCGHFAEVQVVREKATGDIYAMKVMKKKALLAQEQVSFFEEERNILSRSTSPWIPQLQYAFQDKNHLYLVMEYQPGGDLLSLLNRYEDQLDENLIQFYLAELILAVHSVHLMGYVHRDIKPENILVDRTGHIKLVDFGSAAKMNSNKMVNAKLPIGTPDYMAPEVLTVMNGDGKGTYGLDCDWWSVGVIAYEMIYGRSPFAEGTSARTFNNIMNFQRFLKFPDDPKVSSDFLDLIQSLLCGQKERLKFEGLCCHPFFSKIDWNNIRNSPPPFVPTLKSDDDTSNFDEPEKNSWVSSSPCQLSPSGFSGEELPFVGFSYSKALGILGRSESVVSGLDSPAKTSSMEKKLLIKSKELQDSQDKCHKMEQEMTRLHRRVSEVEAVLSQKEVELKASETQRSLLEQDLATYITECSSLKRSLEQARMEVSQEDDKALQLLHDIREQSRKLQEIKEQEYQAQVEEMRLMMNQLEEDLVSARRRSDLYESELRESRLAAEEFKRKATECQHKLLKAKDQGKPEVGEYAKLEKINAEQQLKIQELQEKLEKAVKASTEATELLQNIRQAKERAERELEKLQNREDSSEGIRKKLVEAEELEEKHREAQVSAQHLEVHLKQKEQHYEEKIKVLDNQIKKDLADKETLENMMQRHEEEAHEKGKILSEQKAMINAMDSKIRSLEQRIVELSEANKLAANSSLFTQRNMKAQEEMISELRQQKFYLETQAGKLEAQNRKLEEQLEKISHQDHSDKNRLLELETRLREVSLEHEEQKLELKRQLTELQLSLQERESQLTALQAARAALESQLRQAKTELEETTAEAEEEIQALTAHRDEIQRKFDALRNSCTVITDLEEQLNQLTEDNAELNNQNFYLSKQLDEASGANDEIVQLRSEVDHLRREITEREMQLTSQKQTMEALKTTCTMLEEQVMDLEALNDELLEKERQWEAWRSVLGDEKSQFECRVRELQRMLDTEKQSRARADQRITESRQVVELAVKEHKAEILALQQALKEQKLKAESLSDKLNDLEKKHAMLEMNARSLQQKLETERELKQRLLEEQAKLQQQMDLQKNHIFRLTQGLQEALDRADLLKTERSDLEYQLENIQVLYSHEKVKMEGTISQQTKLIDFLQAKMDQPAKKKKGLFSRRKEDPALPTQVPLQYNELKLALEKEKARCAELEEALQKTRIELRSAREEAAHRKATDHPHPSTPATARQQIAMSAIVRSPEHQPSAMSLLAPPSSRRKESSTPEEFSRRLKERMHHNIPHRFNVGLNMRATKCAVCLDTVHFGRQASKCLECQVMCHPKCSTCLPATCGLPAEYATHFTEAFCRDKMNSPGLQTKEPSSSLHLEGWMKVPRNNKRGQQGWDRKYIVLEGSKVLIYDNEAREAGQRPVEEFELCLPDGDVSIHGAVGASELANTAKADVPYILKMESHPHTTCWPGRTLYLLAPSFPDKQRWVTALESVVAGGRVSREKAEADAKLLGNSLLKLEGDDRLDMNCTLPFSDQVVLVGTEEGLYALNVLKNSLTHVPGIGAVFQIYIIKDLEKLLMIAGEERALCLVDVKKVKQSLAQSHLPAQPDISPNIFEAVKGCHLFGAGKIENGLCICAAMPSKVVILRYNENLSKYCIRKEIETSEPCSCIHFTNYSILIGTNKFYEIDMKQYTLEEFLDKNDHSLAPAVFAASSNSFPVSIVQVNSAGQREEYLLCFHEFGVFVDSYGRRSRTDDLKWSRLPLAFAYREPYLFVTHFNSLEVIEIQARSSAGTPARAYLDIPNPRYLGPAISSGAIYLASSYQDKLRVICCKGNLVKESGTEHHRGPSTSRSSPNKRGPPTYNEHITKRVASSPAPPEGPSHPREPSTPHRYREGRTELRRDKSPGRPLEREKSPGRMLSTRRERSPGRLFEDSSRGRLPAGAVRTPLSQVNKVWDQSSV
Calls of active or inactive are those of the source.
Labels: 1 (yes) = active, 0 (no) = inactive

molecule: Cc1c(NC(=O)OC[C@@H]2COCCN2)cn2ncnc(Nc3ccc4c(cnn4Cc4cccc(F)c4)c3)c12 [AC-480]
label: 0 (no)

molecule: COc1cc2nccc(Oc3ccc(NC(=O)C4(C(=O)Nc5ccc(F)cc5)CC4)cc3)c2cc1OC [CABOZANTINIB]
label: 0 (no)

molecule: CCc1cc2c(cc1N1CCC(N3CCOCC3)CC1)C(C)(C)c1[nH]c3cc(C#N)ccc3c1C2=O [ALECTINIB]
label: 0 (no)

molecule: C=CCN(/C=C1/C(=O)O[C@H](COC)[C@@]2(C)C1=C(O)C(=O)C1=C2[C@H](OC(C)=O)C[C@]2(C)C(=O)CC[C@@H]12)CC=C [SONOLISIB]
label: 0 (no)

molecule: CCOc1ccn(-c2ccc(F)cc2)c(=O)c1C(=O)Nc1ccc(Oc2ccnc(N)c2Cl)c(F)c1 [BMS-777607]
label: 0 (no)

molecule: Cn1c(=O)n(-c2ccc(C(C)(C)C#N)cc2)c2c3cc(-c4cnc5ccccc5c4)ccc3ncc21 [DACTOLISIB]
label: 0 (no)

molecule: CC(C)CC(=O)Nc1[nH]nc2c1CN(C(=O)C1CCN(C)CC1)C2(C)C [PHA-793887]
label: 0 (no)

molecule: NC[C@@](O)(c1ccc(Cl)cc1)c1ccc(-c2cn[nH]c2)cc1 [AT-13148]
label: 0 (no)

molecule: Cc1c(Cn2c(C)nc3c(C(=O)O)cc(N4CCOCC4)cc32)cccc1C(F)(F)F [GSK-2636771]
label: 0 (no)

molecule: O=S(=O)(c1cccc2cnccc12)N1CCCNCC1 [FASUDIL]
label: 1 (yes)

molecule: O=C(O)c1ccc2c(c1)nc(Nc1cccc(Cl)c1)c1ccncc12 [SILMITASERTIB]
label: 0 (no)

molecule: COCCN1CCN(Cc2ccc(-c3n[nH]c4c3C(=O)c3c(NC(=O)NN5CCOCC5)cccc3-4)cc2)CC1 [RGB-286638]
label: 1 (yes)

molecule: C#Cc1cccc(Nc2ncnc3cc4c(cc23)OCCOCCOCCO4)c1 [ICOTINIB]
label: 0 (no)

molecule: CN(c1ncccc1CNc1nc(Nc2ccc3c(c2)CC(=O)N3)ncc1C(F)(F)F)S(C)(=O)=O [PF-00562271]
label: 0 (no)

molecule: Cn1c(=O)c(F)c(Nc2ccc(I)cc2F)c2c(=O)n(C[C@@H](O)CO)cnc21 [TAK-733]
label: 0 (no)

molecule: COc1cc(F)c(F)c(Nc2ccc(I)cc2F)c1NS(=O)(=O)C1(C[C@H](O)CO)CC1 [REFAMETINIB]
label: 0 (no)

molecule: CC(C)(O)CC(=O)NCCn1ccc2ncnc(Nc3ccc(Oc4cccc(C(F)(F)F)c4)c(Cl)c3)c21 [TAK-285]
label: 0 (no)

molecule: FC(F)(F)c1ccc(CNc2ccc(Cc3c[nH]c4ncc(Cl)cc34)cn2)cn1 [PEXIDARTINIB]
label: 0 (no)

molecule: NC(=O)c1ccc(N(C(N)=O)c2c(F)cccc2F)nc1-c1ccc(F)cc1F [VX-702]
label: 0 (no)

molecule: CNC(=O)c1cccc(-c2ccc3c(N4CCOC[C@@H]4C)nc(N4CCOC[C@@H]4C)nc3n2)c1 [VISTUSERTIB]
label: 0 (no)

molecule: S=C(NCc1ccc2c(c1)OCO2)N1CCN(c2ncnc3c2oc2ccccc23)CC1 [AMUVATINIB]
label: 0 (no)

molecule: O=C(NOC[C@H](O)CO)c1ccc(F)c(F)c1Nc1ccc(I)cc1F [MIRDAMETINIB]
label: 0 (no)

molecule: CC1(COc2ccc3c(c2)ncn3-c2ccc3cccc(N4CCC(N)CC4)c3n2)COC1 [CRENOLANIB]
label: 0 (no)

molecule: C=CC(=O)Nc1cccc(Nc2nc(Nc3ccc(N4CCN(C(C)=O)CC4)cc3OC)ncc2C(F)(F)F)c1 [ROCILETINIB]
label: 0 (no)

molecule: CCN(CCCOc1ccc2c(Nc3cc(CC(=O)Nc4cccc(F)c4)n[nH]3)ncnc2c1)CCOP(=O)(O)O [BARASERTIB]
label: 0 (no)

molecule: CN1CCN(c2nc(C3=C(c4c[nH]c5ccccc45)C(=O)NC3=O)c3ccccc3n2)CC1 [SOTRASTAURIN]
label: 0 (no)

molecule: COc1cc(Nc2ncc(F)c(Nc3ccc4c(n3)N(COP(=O)(O)O)C(=O)C(C)(C)O4)n2)cc(OC)c1OC [FOSTAMATINIB]
label: 0 (no)
